Test: Plasma concentration versus time of Compound I and metabolite Compound III in patients dosed QD or BID with Form B of Compound II plus fulvestrant
Assay type: in vivo, human
Details: human, plasma, oral, 100 mg, Cohort 6, 100 mg BID of Form B, Day 8; read-out: Trough Compound I Concentration, Median
result type: concentration at 8 day (ng/mL)
// return numeric value only (unit: ng/mL, not printed)

For record `CC(C)N1CCN(c2ccc(Nc3ncc4cc5n(c4n3)C3(CCCCC3)CNC5=O)nc2)CC1` the listed concentration at 8 day is 5.49

====

Assay: Noncompartmental pharmacokinetic parameters (Cmax, Tmax, AUC, Racc) in QD and BID cohorts of Form B
Type: in vivo, human
Conditions: human, plasma, oral, 100 mg, Compound III; 100 mg BID of Form B; Cohort 6; Day 1; read-out: Tmax (Mean)
result type: Tmax (h)
// return numeric value only (unit: h, not printed)

For record O=C1NCC2(CCCCC2)n2c1cc1cnc(Nc3ccc(N4CCNCC4)cn3)nc12 [Compound III] the listed Tmax is 3.17

====

Experiment: Plasma concentration versus time of Compound I and metabolite Compound III in patients dosed QD or BID with Form B of Compound II plus fulvestrant
Assay type: in vivo, human
Conditions: human, plasma, oral, 100 mg, Cohort 6, 100 mg BID of Form B, Day 29, 1.0 h; read-out: Compound I Concentration, Mean
result type: concentration at 1 h (ng/mL)
// return numeric value only (unit: ng/mL, not printed)

For record `CC(C)N1CCN(c2ccc(Nc3ncc4cc5n(c4n3)C3(CCCCC3)CNC5=O)nc2)CC1` the listed concentration at 1 h is 9.25

====

Experiment: Plasma concentration versus time of Compound I and metabolite Compound III in patients dosed QD or BID with Form B of Compound II plus fulvestrant
Assay type: in vivo, human
Details: human, plasma, oral, 500 mg, 500 mg QD of Form B, Day 1, 8.0 h, Median; read-out: Compound I Concentration
result type: concentration at 8 h (ng/mL)
// return numeric value only (unit: ng/mL, not printed)

For record `CC(C)N1CCN(c2ccc(Nc3ncc4cc5n(c4n3)C3(CCCCC3)CNC5=O)nc2)CC1` the listed concentration at 8 h is 42.3

====

Test: Plasma concentration versus time of Compound I and metabolite Compound III in patients dosed QD or BID with Form B of Compound II plus fulvestrant
Type: in vivo, human
Conditions: human, plasma, oral, 400 mg, 400 mg QD of Form B, Day 29, 2.0 h, Median; read-out: Compound I Concentration
result type: concentration at 2 h (ng/mL)
// return numeric value only (unit: ng/mL, not printed)

For record `CC(C)N1CCN(c2ccc(Nc3ncc4cc5n(c4n3)C3(CCCCC3)CNC5=O)nc2)CC1` the listed concentration at 2 h is 13.4

====

Assay: Noncompartmental pharmacokinetic parameters (Cmax, Tmax, AUC, Racc) in QD and BID cohorts of Form B
Type: in vivo, human
Conditions: human, plasma, oral, 200 mg, Compound I; 200 mg QD of Form B; Cohort 1; Day 29; read-out: AUClast (Median)
result type: AUC(0-t) (ng·h/mL)
// return numeric value only (unit: ng·h/mL, not printed)

For record `CC(C)N1CCN(c2ccc(Nc3ncc4cc5n(c4n3)C3(CCCCC3)CNC5=O)nc2)CC1` the listed AUC(0-t) is 227

====

Test: Plasma concentration versus time of Compound I and metabolite Compound III in patients dosed QD or BID with Form B of Compound II plus fulvestrant
Type: in vivo, human
Details: human, plasma, oral, 300 mg, 300 mg QD of Form B, Day 1, […], Mean; read-out: Compound I Concentration
result type: concentration at 24 h (ng/mL)
// return numeric value only (unit: ng/mL, not printed)

For record `CC(C)N1CCN(c2ccc(Nc3ncc4cc5n(c4n3)C3(CCCCC3)CNC5=O)nc2)CC1` the listed concentration at 24 h is 8.09

====

Assay: Plasma concentration versus time of Compound I and metabolite Compound III in patients dosed QD or BID with Form B of Compound II plus fulvestrant
Format: in vivo, human
Conditions: human, plasma, oral, 100 mg, 100 mg BID of Form B, Day 1, 3.0 h, Median; read-out: Compound III Concentration
result type: concentration at 3 h (ng/mL)
// return numeric value only (unit: ng/mL, not printed)

For record `O=C1NCC2(CCCCC2)n2c1cc1cnc(Nc3ccc(N4CCNCC4)cn3)nc12` the listed concentration at 3 h is 1.42

====

Assay: Plasma concentration versus time of Compound I and metabolite Compound III in patients dosed QD or BID with Form B of Compound II plus fulvestrant
Assay type: in vivo, human
Conditions: human, plasma, oral, 400 mg, 400 mg QD of Form B, Day 29, 10.0 h, Median; read-out: Compound I Concentration
result type: concentration at 10 h
Report the figure along with its unit, number first.

For record `CC(C)N1CCN(c2ccc(Nc3ncc4cc5n(c4n3)C3(CCCCC3)CNC5=O)nc2)CC1` the listed concentration at 10 h is 17.1 ng/mL

====

Experiment: Plasma concentration versus time of Compound I and metabolite Compound III in patients dosed QD or BID with Form B of Compound II plus fulvestrant
Assay type: in vivo, human
Conditions: human, plasma, oral, 650 mg, 650 mg QD of Form B, Day 1, 3.0 h, Mean; read-out: Compound I Concentration
result type: concentration at 3 h (ng/mL)
// return numeric value only (unit: ng/mL, not printed)

For record `CC(C)N1CCN(c2ccc(Nc3ncc4cc5n(c4n3)C3(CCCCC3)CNC5=O)nc2)CC1` the listed concentration at 3 h is 30.9

====

Assay: Plasma concentration versus time of Compound I and metabolite Compound III in patients dosed QD or BID with Form B of Compound II plus fulvestrant
Type: in vivo, human
Settings: human, plasma, oral, 650 mg, Cohort 5, 650 mg QD of Form B, Day 15; read-out: Trough Compound I Concentration, Min
result type: concentration at 15 day (ng/mL)
// return numeric value only (unit: ng/mL, not printed)

For record `CC(C)N1CCN(c2ccc(Nc3ncc4cc5n(c4n3)C3(CCCCC3)CNC5=O)nc2)CC1` the listed concentration at 15 day is 19.1

====

Assay: Plasma concentration versus time of Compound I and metabolite Compound III in patients dosed QD or BID with Form B of Compound II plus fulvestrant
Assay type: in vivo, human
Details: human, plasma, oral, 400 mg, 400 mg QD of Form B, Day 29, 8.0 h, Mean; read-out: Compound I Concentration
result type: concentration at 8 h (ng/mL)
// return numeric value only (unit: ng/mL, not printed)

For record CC(C)N1CCN(c2ccc(Nc3ncc4cc5n(c4n3)C3(CCCCC3)CNC5=O)nc2)CC1 [Compound I] the listed concentration at 8 h is 17

====

Experiment: Plasma concentration versus time of Compound I and metabolite Compound III in patients dosed QD or BID with Form B of Compound II plus fulvestrant
Assay type: in vivo, human
Details: human, plasma, oral, 200 mg, 200 mg QD of Form B, Day 29, 1.0 h, Mean; read-out: Compound I Concentration
result type: concentration at 1 h (ng/mL)
// return numeric value only (unit: ng/mL, not printed)

For record CC(C)N1CCN(c2ccc(Nc3ncc4cc5n(c4n3)C3(CCCCC3)CNC5=O)nc2)CC1 [Compound I] the listed concentration at 1 h is 5.12

====

Test: Plasma concentration versus time of Compound I and metabolite Compound III in patients dosed QD or BID with Form B of Compound II plus fulvestrant
Format: in vivo, human
Settings: human, plasma, oral, 500 mg, 500 mg QD of Form B, Day 29, 0.0 h, Median; read-out: Compound I Concentration
Text: Patients were enrolled into 1 of 2 parallel, independently operating, dose-escalation dosing cohorts with Form B of Compound II administered continuously either once daily (QD) or twice daily (BID) with food with fixed-dose fulvestrant (intramuscularly every 14 days for the first three injections and then every 28 days). Pre- or perimenopausal patients also received goserelin for the duration of study treatment. […]
result type: concentration at 0 h (ng/mL)
// return numeric value only (unit: ng/mL, not printed)

For record `CC(C)N1CCN(c2ccc(Nc3ncc4cc5n(c4n3)C3(CCCCC3)CNC5=O)nc2)CC1` the listed concentration at 0 h is 15.3

====

Test: Plasma concentration versus time of Compound I and metabolite Compound III in patients dosed QD or BID with Form B of Compound II plus fulvestrant
Assay type: in vivo, human
Conditions: human, plasma, oral, 200 mg, 200 mg QD of Form B, Day 29, 4.0 h, Median; read-out: Compound I Concentration
result type: concentration at 4 h (ng/mL)
// return numeric value only (unit: ng/mL, not printed)

For record `CC(C)N1CCN(c2ccc(Nc3ncc4cc5n(c4n3)C3(CCCCC3)CNC5=O)nc2)CC1` the listed concentration at 4 h is 18.8

Reference for the values: patent US11357779B2
